System: NCI/ADR-RES ovarian
method.description: NCI tumour cell line growth inhibition, 48 h
quantity.kind: TGI (µM)
Numbers only, in µM.

Suppose we examine the compound COC(=O)C1=C(C(=O)Nc2cccnc2)C2OC1(C(Cc1ccccc1)Oc1ccccc1)C1OC21 (stereo not given) ; what TGI value has been reported?
56.5

Turning now to a further compound:
Suppose we examine the compound CCCCCCCCCCCCCCCCCC(=O)[O][Sn]([CH2]CCC)([CH2]CCC)[CH2]CCC ; what TGI value has been reported?
0.438

* * *

System: SF-539 CNS
method.description: NCI tumour cell line growth inhibition, 48 h
# label = satisfied if TGI >= 30 µM else not satisfied

In plain terms: is recorded TGI at least 30 µM for Cc1cc(C)nc(NC(=S)Nc2cccc(Cl)c2)c1 ?
satisfied

In plain terms: is recorded TGI at least 30 µM for c1ccc2c(c1)nnn1c3cnccc3nc21 ?
satisfied

In plain terms: is recorded TGI at least 30 µM for CCN(CC)CCC(=O)c1ccc(Oc2ccc(C)cc2)cc1 ?
satisfied

New cases:
In plain terms: is recorded TGI at least 30 µM for Cc1oncc1C(=O)Nc1ccc(C(F)(F)F)cc1 ?
satisfied

In plain terms: is recorded TGI at least 30 µM for COc1ccccc1/C=C1\CCC(CN(C)C)C1=O (configuration not stated) ?
not satisfied

In plain terms: is recorded TGI at least 30 µM for CC(/C=C/C=C/C=C/C=C/C=C/C(O)=C1/C(=O)C(CCC(=O)O)N(C)C1=O)=C\C(C)C(OC1CC(O)C(O)C(C)O1)C(C)C (configuration not stated) ?
not satisfied

* * *

Tested on: NCI-H23 lung
method.description: NCI tumour cell line growth inhibition, 48 h
quantity.kind: GI50

Answered cases to consult:
Item: C[C@@]12CCC[C@@](C)(C(=O)O)C1CC[C@]13C=C(CO)[C@](O)(CCC12)C3 (some centres undefined) Test system: NCI-H23 lung Read-out: GI50 Value: ?
> 100 µM

Item: Oc1c(Cl)cc(C(c2cc(Cl)c(O)c(Cl)c2)C(c2cc(Cl)c(O)c(Cl)c2)c2cc(Cl)c(O)c(Cl)c2)cc1Cl Test system: NCI-H23 lung Read-out: GI50 Value: ?
3.68 µM

Item: Nc1nn(C(=O)Nc2ccc(Cc3ccccc3)cc2)c2ccc(Cl)cc12 Test system: NCI-H23 lung Read-out: GI50 Value: ?
5.72 µM

New cases:
Item: COc1ccc(Nc2nc(NCc3ccccc3)c3ccccc3n2)cc1 Test system: NCI-H23 lung Read-out: GI50 Value: ?
3.02 µM

* * *

Test system: HS 578T breast
method.description: NCI tumour cell line growth inhibition, 48 h
Give TGI for every item shown.

Answered cases to consult:
Suppose we examine the molecule O=[n+]1cnn([O-])c2ccccc21 ; what TGI value has been reported?
> 100 µM

Suppose we examine the molecule COc1cccc(N=N/C(=N/NC(=O)c2cc(Cl)ccc2O)c2ccc(N(CCC#N)CCC#N)cc2C)c1 ; what TGI value has been reported?
> 100 µM

Suppose we examine the molecule Cc1cc(C)c2c(=O)n(CN3CCN(c4ccccc4)CC3)sc2n1 ; what TGI value has been reported?
> 100 µM

Suppose we examine the molecule OCC1C(O)C(O)[C@@H]2SCCN12 (some centres not stated) ; what TGI value has been reported?
> 100 µM

Suppose we examine the molecule NC(Cc1cc(Br)c(O)c(Br)c1)C(=O)O (configuration not stated) ; what TGI value has been reported?
> 100 µM

Suppose we examine the molecule C=C1C(=O)O[C@H]2[C@H]1CC/C(COC(=O)NCc1c[nH]c3ccc(OC)cc13)=C\CC[C@@]1(C)O[C@@H]21 ; what TGI value has been reported?
16.2 µM

Suppose we examine the molecule CSc1c(C#N)c(O)n(-c2ccc(Cl)cc2)c(=O)c1C#N ; what TGI value has been reported?
> 100 µM

Suppose we examine the molecule CCOC(=O)C(Cc1ccc(OC(=O)c2ccc(OC)cc2OC)cc1)NC(=O)C(F)(F)F (configuration not stated) ; what TGI value has been reported?
83.5 µM

Suppose we examine the molecule O=C(O)c1cnccc1-c1cc(=O)[nH]n1-c1ccccc1 ; what TGI value has been reported?
> 100 µM

Suppose we examine the molecule C#CCn1c(=O)c(C)cn(/C(=C/C(=O)OCC)C(=O)OCC)c1=O ; what TGI value has been reported?
30 µM

For each listed entry, give its TGI.
1. Cc1oncc1C(=O)Nc1ccc(C(F)(F)F)cc1
2. Fc1ccc(C2(CCCN3CCc4[nH]c5cc(F)ccc5c4C3)OCCO2)cc1
3. NC(=O)ON=C1CCN(Cc2ccccc2)CC1
4. N#Cc1cc(-c2ccccc2)[nH]c1-c1nccc2ccccc12

1. > 100 µM
2. 17.4 µM
3. > 100 µM
4. > 100 µM

For each listed entry, give its TGI.
1. CN(C)C/C=C(/c1ccc(Br)cc1)c1cccnc1
2. Clc1ccc(NCc2nnc(COc3ccc(OCc4nnc(CNc5ccc(Cl)cc5)o4)c(Cl)c3)o2)cc1
3. CC(C)=CCC/C(C)=C/CC/C(C)=C/[C@@H]1[C@@H](CO)[C@]1(C)CC/C=C(\C)CCC=C(C)C
4. CC1=NN(c2cccc(Cl)c2)C(=N/c2nc3ccccc3s2)/C1=C\C=C\c1ccccc1
5. COC(=O)C1=C(C(=O)Nc2cccnc2)C2OC1(C(Cc1ccccc1)Oc1ccccc1)C1OC21 (configuration not stated)

1: > 100 µM; 2: > 100 µM; 3: > 100 µM; 4: 87.6 µM; 5: 49.9 µM
